targetUnderTest: HLA-A*1101 (human)
protocolDescription: competition with 125I probe peptide for purified HLA
endpointLabel: pIC50
Give bare numbers, as −log10 of the molar value.

Use these answered entries as a reference point.
binder: TVSPSYTYYK [CEA.419.V2K10]
pIC50: 7.37
--
binder: RVLTLFNVTK [CEA.554.V42K10]
pIC50: 7.49

Consider the record given below.
Challenge: Provide pIC50 value for the following binder: TVSPSYTYYR [CEA.419.V2]
Response given: 5.52

# credit: patent US20040146519A1
